- CONDITION_CONTEXT: in methanol, 293.15 K
MEASURED_PARAMETER: solubility (mole fraction)
One number for each entry.

Request: Supply recorded solubility (mole fraction) for CC(C)(C)OC(=O)N[C@@H](CC(N)=O)C(=O)O here.
Response: 0.00842

* * *

- CONDITION_CONTEXT: in 2-butanone, 318.15 K
MEASURED_PARAMETER: solubility (mole fraction)
Numbers only.

Request: Supply recorded solubility (mole fraction) for CC(C)(C)OC(=O)N[C@@H](CC(N)=O)C(=O)O here.
Response: 0.00131

* * *

- CONDITION_CONTEXT: in 2-butanone, 303.15 K
MEASURED_PARAMETER: solubility (mole fraction)
Answers are plain numbers.

Request: Supply recorded solubility (mole fraction) for CC(C)(C)OC(=O)N[C@@H](CC(N)=O)C(=O)O here.
Response: 0.000804
